Origin of values: patent US20220017636A1

assayed.target: T1, KEA peptide complexed with HLA-A*02:01 on T2 cells (human)
T1 construct: whole, on cells
measurement.protocol: flow cytometry, peptide-loaded T2 cells;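 note: binding of single-chain Fv antibody constructs, raised in XenoMouse, to peptide-pulsed T2 cells measured by flow cytometry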
property: Signal/background
// no unit, no text: just the number

>  <binder>
18182-E1 (scFv, scFv in bacterial lysate, detected with anti-Flag M2) scFv: EVQLLESGGGLVQPGGSLRLSCAASGFTFSSHAMSWVRQAPGKGLEWVSAISGSGGGTYNADSVKGRFTISRDNSKNTLYLQMNSLRAEDTAAYYCVTGKGVHLGFDYWGQGTLVTVSSGGGGSGGGGSGGGGSELVLTQPPSVSVAPGQTARITCGGNNIGSKSVHWYQQKPGQAPVMVVYDDNDRPSGIPERFSGSNSGNTATLTISRVEAGDEADYYCQVWDSSSDHVVFGGGTKLTVL

>  <Signal/background>
0.9

$$$$

Turning now to a further binder:
Lab note: measured Signal/background of 18182-E10 (scFv, scFv in bacterial lysate, detected with anti-Flag M2) scFv: EVQLLESGGGLVQPGGSLRLSCAASGFTFSSHAMSWVRQAPGQGLEWVSSISGSGGGTYYAASVKGRFTISRDNSKNTLYLQMNSLRAEDTAVYYCATGKGVHLNFDYWGQGTLVTVSSGGGGSGGGGSGGGGSELALTQPASASVAPGQTARITCGGNNIGSKSVHWHQQKPGQAPVLVVYDDNDRPSGIPERFSGSNSGNTATLTISRVEAGDEADFYCQVWDSSSDHVVFGGGTKLTVL was 0.8
